Data origin, for the record: paper PMC4408918

assay: In vivo pharmacokinetics, oral, female CD-1 mice; conditions: female, CD-1, mouse, in vivo, po, 200 mg/kg
Provide the reported AUC(0-inf) of each item.
Supply the numeric figure in µM·h, leaving out any unit text.

Request: AUC(0-inf) lookup needed for O=C(CCc1ccccc1)c1ccccc1OCC(O)CN1CCC(c2ccccc2)CC1 (centres unmarked) [Compound 4] , thanks.
Result: 6.8

Request: What about Cc1ccc(N2CCN(CC(O)COc3ccccc3C(=O)CCc3ccccc3)CC2)cc1 (centres unmarked) [Compound 6] ?
Result: 6.49

###

assay: In vivo pharmacokinetics, oral, female CD-1 mice; conditions: female, CD-1, mouse, plasma, po, 200 mg/kg
Provide the reported CL/F of each item.
Supply the numeric figure in mL/min/kg, leaving out any unit text.

Request: CL/F lookup needed for O=C(CCc1ccccc1)c1cc(F)ccc1OCC(O)CN1CCC(c2ccccc2)CC1 (stereo not shown) , thanks.
Result: 1790

Request: What about O=C(CCc1ccc(F)cc1)c1ccccc1OCC(O)CN1CCN(C(c2ccccc2)c2ccccc2)CC1 (stereo not shown) ?
Result: 1000

Request: What about O=C(CCc1ccccc1)c1cc(F)ccc1OCC(O)CN1CCN(C(c2ccccc2)c2ccccc2)CC1 (stereo not shown) ?
Result: 920

Request: What about O=C(CCc1ccccc1)c1ccccc1OCC(O)CN1CCN(C(c2ccccc2)c2ccccc2)CC1 (stereo not shown) ?
Result: 1890

###

Provide the reported AUC(0-inf) of each item.
assay: In vivo pharmacokinetics, oral, female CD-1 mice; conditions: female, CD-1, mouse, plasma, po, 20 mg/kg
Supply the numeric figure in µM·h, leaving out any unit text.

Request: AUC(0-inf) lookup needed for O=C(CCc1ccccc1)c1cc(F)ccc1OCC(O)CN1CCC(c2ccccc2)CC1 (stereo not drawn) , thanks.
Result: 1.6

Request: What about O=C(CCc1ccccc1)c1ccccc1OCC(O)CN1CCN(C(c2ccccc2)c2ccccc2)CC1 (stereo not drawn) ?
Result: 0.249

Request: What about O=C(CCc1ccc(F)cc1)c1ccccc1OCC(O)CN1CCN(C(c2ccccc2)c2ccccc2)CC1 (stereo not drawn) ?
Result: 0.298

###

test: Liver microsomal stability, human; assay type: in vitro ADME; details: both, human liver microsomes (pooled), pH 7.4
Provide the reported CLint scaled at 2000 µM of each item.
Supply the numeric figure in mL/min/kg, leaving out any unit text.

Request: CLint scaled at 2000 µM lookup needed for O=C(CCc1ccccc1)c1ccccc1OCC(O)CN1CCC(c2ccccc2)CC1 (stereo not shown) , thanks.
Result: 11

Request: What about O=C(CCc1ccccc1)c1cc(F)ccc1OCC(O)CN1CCC(c2ccccc2)CC1 (stereo not shown) ?
Result: 19

Request: What about O=C(CCc1ccc(F)cc1)c1ccccc1OCC(O)CN1CCN(C(c2ccccc2)c2ccccc2)CC1 (stereo not shown) ?
Result: 13

Request: What about O=C(CCc1ccccc1)c1ccccc1OCC(O)CN1CCN(C(c2ccccc2)c2ccccc2)CC1 (stereo not shown) ?
Result: 14

###

experiment: Liver microsomal stability, mouse; format: in vitro ADME; details: female, CD9, mouse, mouse liver microsomes, pH 7.4
Provide the reported CLint scaled at 2000 µM of each item.
Note to self: number, then unit, no commentary.

Request: CLint scaled at 2000 µM lookup needed for Cc1ccc(N2CCN(CC(O)COc3ccccc3C(=O)CCc3ccccc3)CC2)cc1 (stereo not shown) , thanks.
Result: 30 mL/min/kg

Request: What about O=C(CCc1ccccc1)c1cc(F)ccc1OCC(O)CN1CCC(c2ccccc2)CC1 (stereo not shown) ?
Result: 29 mL/min/kg

Request: What about O=C(CCc1ccc(F)cc1)c1ccccc1OCC(O)CN1CCN(C(c2ccccc2)c2ccccc2)CC1 (stereo not shown) ?
Result: 43 mL/min/kg

Request: What about O=C(CCc1ccccc1)c1ccccc1OCC(O)CN1CCC(c2ccccc2)CC1 (stereo not shown) ?
Result: 27 mL/min/kg

###

test: In vivo pharmacokinetics, oral, female CD-1 mice; conditions: female, CD-1, mouse, in vivo, po, 500 mg/kg
measured property: AUC(0-inf) (µM·h)
Supply the numeric figure in µM·h, leaving out any unit text.

Request: AUC(0-inf) lookup needed for O=C(CCc1ccccc1)c1ccccc1OCC(O)CN1CCC(c2ccccc2)CC1 (stereo not shown) [Compound 4] , thanks.
Result: 15.3

###

system: P. falciparum K1; test: P. falciparum K1 growth inhibition; type: cell-based; conditions: Plasmodium falciparum, K1, 72 h, read-out: K1 EC50
measured property: EC50
Note to self: number, then unit, no commentary.

Request: EC50 lookup needed for O=C(CCc1ccccc1)c1ccccc1OCC(O)CN1CCN(C(c2ccccc2)c2ccccc2)CC1 (stereo not shown) , thanks.
Result: 100 nM

###

assay: In vivo pharmacokinetics, oral, female CD-1 mice; details: female, CD-1, mouse, in vivo, po, 20 mg/kg
measured property: AUC(0-inf) (nM·h)
Supply the numeric figure in nM·h, leaving out any unit text.

Request: AUC(0-inf) lookup needed for O=C(CCc1ccccc1)c1ccccc1OCC(O)CN1CCC(c2ccccc2)CC1 (stereo not shown) [Compound 4] , thanks.
Result: 224

###

experiment: In vivo pharmacokinetics, oral, female CD-1 mice; settings: female, CD-1, mouse, plasma, po, 200 mg/kg
Provide the reported AUC(0-inf) of each item.
Supply the numeric figure in µM·h, leaving out any unit text.

Request: AUC(0-inf) lookup needed for O=C(CCc1ccccc1)c1cc(F)ccc1OCC(O)CN1CCN(C(c2ccccc2)c2ccccc2)CC1 (stereo not shown) , thanks.
Result: 6.17

Request: What about O=C(CCc1ccccc1)c1cc(F)ccc1OCC(O)CN1CCC(c2ccccc2)CC1 (stereo not shown) ?
Result: 3.75

Request: What about O=C(CCc1ccccc1)c1ccccc1OCC(O)CN1CCN(C(c2ccccc2)c2ccccc2)CC1 (stereo not shown) ?
Result: 3.1

Request: What about O=C(CCc1ccc(F)cc1)c1ccccc1OCC(O)CN1CCN(C(c2ccccc2)c2ccccc2)CC1 (stereo not shown) ?
Result: 5.67

###

test: In vivo pharmacokinetics, oral, female CD-1 mice; conditions: female, CD-1, mouse, plasma, po, 500 mg/kg
Provide the reported AUC(0-inf) of each item.

Request: AUC(0-inf) lookup needed for O=C(CCc1ccccc1)c1ccccc1OCC(O)CN1CCN(C(c2ccccc2)c2ccccc2)CC1 (centres unmarked) [Compound 1] , thanks.
Result: 3.37 µM·h

Request: What about O=C(CCc1ccc(F)cc1)c1ccccc1OCC(O)CN1CCN(C(c2ccccc2)c2ccccc2)CC1 (centres unmarked) [Compound 3] ?
Result: 4.08 µM·h
